subjectOfTest: IMP-1 (Serratia marcescens, UniProt P52699)
Sequence (P52699 19-246, looked up, species assumed): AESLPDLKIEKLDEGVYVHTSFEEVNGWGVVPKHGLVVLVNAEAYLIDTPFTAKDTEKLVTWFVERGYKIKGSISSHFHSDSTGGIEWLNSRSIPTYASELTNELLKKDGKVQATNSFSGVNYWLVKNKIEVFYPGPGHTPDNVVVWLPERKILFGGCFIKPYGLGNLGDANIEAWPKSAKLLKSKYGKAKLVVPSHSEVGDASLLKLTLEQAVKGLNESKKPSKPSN
Assign labels as follows, please: true (1) for IC50 below 6 nM; false (0) for IC50 equal to or exceeding 6 nM.

Query: # strict comparison: is reported IC50 < 6 nM? input = "NC[C@H](CO)NS(=O)(=O)c1ccc(N2CCCn3ccnc32)c(-c2nnn[nH]2)c1S(N)(=O)=O"
Response: false (0)

Query: # strict comparison: is reported IC50 < 6 nM? input = "NC[C@@H](O)CNS(=O)(=O)c1ccc(N2CCc3nc(N)[nH]c3C2)c(-c2nn[nH]n2)c1S(N)(=O)=O"
Response: true (1)

Query: # strict comparison: is reported IC50 < 6 nM? input = "C[C@H](N)CNS(=O)(=O)c1ccc(N2CCCn3ccnc32)c(-c2nn[nH]n2)c1S(N)(=O)=O"
Response: false (0)

Query: # strict comparison: is reported IC50 < 6 nM? input = "NC[C@@H](O)CNS(=O)(=O)c1ccc(N2CC[C@H](CO)n3ccnc32)c(-c2nn[nH]n2)c1S(N)(=O)=O"
Response: true (1)

Query: # strict comparison: is reported IC50 < 6 nM? input = "NS(=O)(=O)c1c(S(=O)(=O)N[C@@H]2CCNC2)ccc(N2CCc3ncccc32)c1-c1nnn[nH]1"
Response: true (1)

Query: # strict comparison: is reported IC50 < 6 nM? input = "NS(=O)(=O)c1c(S(=O)(=O)N[C@@H]2CCNC2)ccc(N2CCc3ccncc32)c1-c1nnn[nH]1"
Response: true (1)

Query: # strict comparison: is reported IC50 < 6 nM? input = "NS(=O)(=O)c1c(S(=O)(=O)N[C@@H]2CCNC2)ccc(N2CCc3[nH]cnc3C2)c1-c1nnn[nH]1"
Response: false (0)
